Reference source for all entries: ChEMBL document CHEMBL4196121

System: Acinetobacter baumannii
measurement-notes: Antibacterial activity against Acinetobacter baumannii isolate 5075 after 16 hrs by broth microdilution assay
Assay type: organism-based
value-kind: MIC

INSERT INTO results (entry_smiles, value_kind, reported_value) VALUES
  ('CCCCn1cc(-c2ccnc(N)n2)c2ccc(Br)cc21.Cl', 'MIC', '> 200 µM'),
  ('Cl.Nc1nccc(-c2cn(Cc3ccccc3)c3ccc(Br)cc23)n1', 'MIC', '> 200 µM'),
  ('Cl.Cn1cc(-c2ccnc(N)n2)c2cc(Br)ccc21', 'MIC', '> 200 µM'),
  ('CN(C)c1nccc(-c2c[nH]c3ccc(Br)cc23)n1.Cl', 'MIC', '> 200 µM'),
  ('CC(C)Cn1cc(-c2ccnc(N)n2)c2ccc(Br)cc21.Cl', 'MIC', '> 200 µM'),
  ('Cl.Nc1nccc(-c2c[nH]c3cc(I)ccc23)n1', 'MIC', '> 200 µM');
